test system: U251 CNS; assay: NCI tumour cell line growth inhibition, 48 h
Listed next: entries and their corresponding TGI.

COMPOUND	MEASUREMENT_TARGET	TGI
Cc1cc(C)nc(NS(=O)(=O)c2ccc(NN=c3c4ccccc4n(C)c4ccccc34)cc2)n1	U251 CNS	> 100 µM
Cc1cc(Cc2cc(C)c(O)c(C)c2)cc(C)c1O	U251 CNS	19.6 µM
Cc1nc2ccccc2c(=O)n1/N=C(\N=Nc1cc(Cl)ccc1Cl)c1cccc(-c2ccco2)c1	U251 CNS	> 100 µM
CNC(C)Cc1ccccc1O (stereo unspecified)	U251 CNS	> 100 µM
Nc1nc(N)c(C2=CCN(Cc3ccccc3)CC2)c(=O)[nH]1	U251 CNS	> 100 µM
O=C(CCN1CCOCC1)Nc1ccc(F)cc1F	U251 CNS	> 100 µM
CC(=O)NC1=C(C)C(=O)c2c(nc3n2CCC3OC(=O)c2ccccc2)C1=N (stereo unspecified)	U251 CNS	9.45 µM
CC1C2=C(CC(C)(C)CC2=O)NC2=C1C(=O)CC(C)(C)C2	U251 CNS	> 100 µM
CC1=CCC2(C#N)CCC1C2O (stereo unspecified)	U251 CNS	> 100 µM
O=C1CSC(/C(=C/c2ccccc2)c2nc3ccccc3[nH]2)=N1	U251 CNS	74.4 µM
CN1CCN(c2ccc(-c3ccc4ncc(C#N)c(Nc5ccc(F)c(Cl)c5)c4c3)cc2)CC1	U251 CNS	7.47 µM
CCC(CC)C(=O)OC[n+]1ccc(-c2c(COC(=O)NC(C)C)c(COC(=O)NC(C)C)c3n2CCC3)cc1	U251 CNS	> 100 µM
CC(=O)OCCOCNC(=S)N/N=C/c1ccc2ccccc2n1	U251 CNS	> 100 µM
O=[N+]([O-])c1ccc(N=Nc2c(O)ccc3cc(S(=O)(=O)O)ccc23)cc1	U251 CNS	> 100 µM
N#CNC(N)=NCCO	U251 CNS	> 100 µM
CC(C)(C)N/N=C(\Cc1occc(=O)c1O)C(=O)Nc1ccc([N+](=O)[O-])cc1[N+](=O)[O-]	U251 CNS	> 100 µM
Cc1c(/C=N/NC(=S)Nc2cccc(Cl)c2)c(=O)n(-c2ccccc2)n1C	U251 CNS	44.6 µM
COC1(C(C)(C)C)C=C(C(C)(C)C)P(=O)(O)O1 (stereo unspecified)	U251 CNS	> 100 µM
COC(=O)Nc1nc2ccc(Oc3ccc4nc(NC(=O)OC)[nH]c4c3)cc2[nH]1	U251 CNS	10.9 µM
CNC(=O)CCNC(=O)CCC(=O)N(C)C	U251 CNS	> 100 µM
COc1cc(N2CCN(C(C)C)CC2)ccc1Nc1nc(Nc2cccc3ncccc23)c2cc[nH]c2n1	U251 CNS	15.1 µM
O=C(COc1ccc(/C=C2\Oc3ccccc3C2=O)cc1)Nc1nccs1	U251 CNS	> 100 µM
Cc1c(C(=O)CC(=O)C(=O)Nc2c(C(C)C)cccc2C(C)C)[n+](=O)c2ccccc2n1[O-]	U251 CNS	10.7 µM
O=S(=O)(Nc1cc(Br)c(O)c2ccccc12)c1ccc(F)cc1	U251 CNS	7.77 µM
Cc1cccc2[nH]c3cc(O)cc(O)c3c(=O)c12	U251 CNS	> 10 µM
CCN(CC)CCNc1ccc2ncn3c4c(OC)ccc(OC)c4c(=O)c1c23	U251 CNS	35.6 µM
O=C1c2ccccc2C(=O)C2C1C1C(=O)c3ccccc3C(=O)C21 (stereo unspecified)	U251 CNS	> 100 µM
C=CCN1C(=O)CC1N(CC=C)S(=O)(=O)c1ccc(C)cc1 (stereo unspecified)	U251 CNS	> 100 µM
Oc1c(C(Nc2cccc3ccccc23)c2ccccc2)ccc2cccnc12 (stereo unspecified)	U251 CNS	16 µM
CO[C@H]1[C@@H](O)[C@@H](C)O[C@@H](O[C@H]2CC[C@@]3(C)[C@H](CC[C@@H]4[C@@H]3CC[C@]3(C)[C@@H](C5=CC(=O)OC5)CC[C@]43O)C2)[C@@H]1O	U251 CNS	0.0415 µM
Cc1nc(Cl)c(Cl)c(Cl)n1	U251 CNS	4.07 µM
